Values compiled from paper PMC12069892.

- Target system: CYP2B6 (Homo sapiens, UniProt P20813)
- Sequence (P20813 whole entry): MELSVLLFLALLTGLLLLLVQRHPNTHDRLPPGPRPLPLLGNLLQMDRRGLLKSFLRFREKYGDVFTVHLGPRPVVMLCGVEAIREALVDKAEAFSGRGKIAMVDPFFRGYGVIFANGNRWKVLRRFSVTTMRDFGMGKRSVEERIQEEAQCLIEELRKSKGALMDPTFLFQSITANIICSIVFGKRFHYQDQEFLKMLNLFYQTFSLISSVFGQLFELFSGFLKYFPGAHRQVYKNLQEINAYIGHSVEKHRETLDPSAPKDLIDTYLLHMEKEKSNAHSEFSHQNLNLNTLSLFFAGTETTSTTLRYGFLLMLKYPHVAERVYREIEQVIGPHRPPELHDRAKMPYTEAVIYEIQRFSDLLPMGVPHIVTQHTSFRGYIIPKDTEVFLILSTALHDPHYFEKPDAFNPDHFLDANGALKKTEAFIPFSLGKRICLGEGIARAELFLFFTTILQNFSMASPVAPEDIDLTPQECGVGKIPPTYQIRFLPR
- Protocol text: Human CYP450 inhibition assay
- Format: in vitro ADME

Molecule	IC50
O=C(Nc1ccc(C(F)(F)F)cc1C(F)(F)F)c1cc(F)ccc1O [A22]	> 33 µM

* * *

- Target system: CYP1A2 (Homo sapiens, UniProt P05177)
- Sequence (P05177 whole entry): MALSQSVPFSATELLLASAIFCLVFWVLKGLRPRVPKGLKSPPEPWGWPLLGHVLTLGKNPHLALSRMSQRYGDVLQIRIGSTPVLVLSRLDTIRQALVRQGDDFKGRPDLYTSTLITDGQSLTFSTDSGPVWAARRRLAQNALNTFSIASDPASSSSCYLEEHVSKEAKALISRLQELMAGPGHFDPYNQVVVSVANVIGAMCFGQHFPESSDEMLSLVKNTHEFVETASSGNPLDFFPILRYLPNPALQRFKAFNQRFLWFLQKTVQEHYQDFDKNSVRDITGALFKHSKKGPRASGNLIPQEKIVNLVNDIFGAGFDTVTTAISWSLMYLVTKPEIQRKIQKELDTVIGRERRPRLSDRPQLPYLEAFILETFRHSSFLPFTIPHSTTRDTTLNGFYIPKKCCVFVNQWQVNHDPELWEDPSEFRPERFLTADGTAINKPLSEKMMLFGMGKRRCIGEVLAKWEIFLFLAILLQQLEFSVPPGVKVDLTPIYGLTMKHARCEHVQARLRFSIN
pIC50: −log10 of the molar value.

Chemical string	pIC50
O=C(Nc1ccc(C(F)(F)F)cc1C(F)(F)F)c1cc(F)ccc1O	5.21

* * *

- Target system: CYP3A4 (Homo sapiens, UniProt P08684)
- Sequence (P08684 whole entry): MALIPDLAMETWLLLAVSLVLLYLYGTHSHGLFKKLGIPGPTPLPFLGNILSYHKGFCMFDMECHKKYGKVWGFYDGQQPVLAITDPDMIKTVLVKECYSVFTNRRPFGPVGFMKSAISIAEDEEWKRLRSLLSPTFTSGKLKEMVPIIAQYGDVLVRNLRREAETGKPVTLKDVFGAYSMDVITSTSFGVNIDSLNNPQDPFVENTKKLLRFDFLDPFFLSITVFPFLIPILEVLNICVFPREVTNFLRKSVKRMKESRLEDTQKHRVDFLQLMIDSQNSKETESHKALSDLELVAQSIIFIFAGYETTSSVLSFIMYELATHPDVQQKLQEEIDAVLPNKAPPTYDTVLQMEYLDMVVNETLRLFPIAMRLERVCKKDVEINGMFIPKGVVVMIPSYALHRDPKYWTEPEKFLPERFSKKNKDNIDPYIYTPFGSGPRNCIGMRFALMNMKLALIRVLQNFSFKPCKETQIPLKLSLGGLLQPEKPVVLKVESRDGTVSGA
pIC50: −log10 of the molar value.

Compound	Target system	pIC50
O=C(Nc1ccc(C(F)(F)F)cc1C(F)(F)F)c1cc(F)ccc1O [A22]	CYP3A4 (Homo sapiens, UniProt P08684)	< 4.48

* * *

- Target system: CYP2C19 (Homo sapiens, UniProt P33261)
- Sequence (P33261 whole entry): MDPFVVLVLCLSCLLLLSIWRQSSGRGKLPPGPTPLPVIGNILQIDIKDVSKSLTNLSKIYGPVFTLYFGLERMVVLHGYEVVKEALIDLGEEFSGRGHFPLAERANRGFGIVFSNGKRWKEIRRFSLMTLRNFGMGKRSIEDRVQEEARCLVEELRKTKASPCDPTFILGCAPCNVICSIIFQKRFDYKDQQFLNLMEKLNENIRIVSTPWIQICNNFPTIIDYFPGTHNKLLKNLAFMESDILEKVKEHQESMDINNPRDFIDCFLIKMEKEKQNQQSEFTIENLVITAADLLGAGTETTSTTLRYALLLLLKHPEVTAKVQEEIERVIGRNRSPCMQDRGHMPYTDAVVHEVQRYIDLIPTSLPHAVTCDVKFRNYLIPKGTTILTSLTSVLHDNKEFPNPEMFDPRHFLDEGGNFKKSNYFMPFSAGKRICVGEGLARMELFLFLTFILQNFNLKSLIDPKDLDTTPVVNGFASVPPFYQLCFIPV
- Protocol text: Human CYP450 inhibition assay
- Condition set: Inhibition for CYP isoforms IC50, 2C19, human liver microsomes, 40 min
pIC50: −log10 of the molar value.

Chemical string	pIC50
O=C(Nc1ccc(C(F)(F)F)cc1C(F)(F)F)c1cc(F)ccc1O	4.69

* * *

- Protocol text: Plasma protein binding assay
- Type: in vitro ADME
- Condition set: human

Chemical string	fraction unbound at 5 h
O=C(Nc1ccc(C(F)(F)F)cc1C(F)(F)F)c1cc(F)ccc1O	0.0206

* * *

- Protocol text: Water solubility assay
- Assay type: physicochemical
- Condition set: thermodynamic from solid
Readout type: solubility at 24 h (µg/mL)

Molecule	Unit abbreviation	Recorded measurement
O=C(Nc1ccc(C(F)(F)F)cc1C(F)(F)F)c1cc(F)ccc1O [A22]	µg/mL	4
